These entries and their values trace back to the supplement of paper PMC7411054.

- Test system: HepG2-ACTB-RAB5A
- test-summary: lowest phenotypically active concentration; higher = less potent
- experimental-setup: treatment time: 24 h
Where a name gives a salt, the structure may show the parent alone.
readout-kind: lowest phenotypically active concentration

{"compound": "Cc1c(O)cccc1C(=O)N[C@@H](CSc1ccccc1)[C@H](O)CN1C[C@H]2CCCC[C@H]2C[C@H]1C(=O)NC(C)(C)C", "value-observed": "9 µM"}
{"compound": "O=C1NC(=O)[C@@H](c2cn3c4c(cccc24)CCC3)[C@@H]1c1c[nH]c2ccccc12 [tivantinib]", "value-observed": "1 µM"}
{"compound": "COc1ccc(N2C(=O)CSC2c2cccc(Br)c2)c(OC)c1 (stereo not drawn)", "value-observed": "9 µM"}
{"compound": "Cc1cc(Nc2cc(N3CCN(C)CC3)nc(Sc3ccc(NC(=O)C4CC4)cc3)n2)[nH]n1", "value-observed": "≤ 0.3 µM"}
{"compound": "COc1ccc2c(NC(=O)Nc3cccc(C(F)(F)F)n3)ccnc2c1", "value-observed": "9 µM"}
{"compound": "N#Cc1c(C2CCNCC2)cc(-c2c(O)cccc2OCC2CC2)nc1N", "value-observed": "9 µM"}
{"compound": "Nc1nc(S)c2[nH]cnc2n1", "value-observed": "9 µM"}
{"compound": "Nc1nc(Cl)nc2c1ncn2[C@@H]1O[C@H](CO)[C@@H](O)[C@@H]1F", "value-observed": "≤ 0.3 µM"}
{"compound": "O=S(=O)(c1cccc2cnccc12)N1CCCNCC1", "value-observed": "9 µM"}
{"compound": "Nc1ncnc2c1ncn2[C@@H]1O[C@H](CO)[C@@H](O)[C@H]1O", "value-observed": "9 µM"}
{"compound": "CN(C)CCCN1c2ccccc2CCc2ccc(Cl)cc21", "value-observed": "9 µM"}
{"compound": "CCCCCCCCCCCCC/C=C/[C@@H](O)[C@H](CO)N(C)C", "value-observed": "3 µM"}
{"compound": "CC(C)(C)c1ccc(C(O)CCCN2CCC(C(O)(c3ccccc3)c3ccccc3)CC2)cc1 (stereo not drawn)", "value-observed": "3 µM"}
{"compound": "C=CC(=O)Nc1cccc(Nc2nc(Nc3ccc(Oc4ccnc(C(=O)NC)c4)cc3)ncc2F)c1", "value-observed": "9 µM"}
{"compound": "CC(C)C(=O)Nc1ncc(-c2cc(C(F)F)nn2-c2c(Cl)cccc2Cl)s1", "value-observed": "3 µM"}
{"compound": "C[C@@H]1CN(Cc2ccc(F)cc2)[C@@H](C)CN1C(=O)c1cc2c(C(=O)C(=O)N(C)C)cn(C)c2cc1Cl [SCIO 469 hydrochloride]", "value-observed": "9 µM"}
{"compound": "OCc1cc(C(O)CNCCCCCCOCCCCc2ccccc2)ccc1O (stereo not drawn)", "value-observed": "9 µM"}
{"compound": "C[C@@H](CN1CCC(n2c(=O)[nH]c3cc(Cl)ccc32)CC1)NC(=O)c1ccc2ccccc2c1", "value-observed": "9 µM"}
